- TEST_PROTOCOL: Inhibition of human urinary kallikrein using H-D-Val-Leu-Arg-pNA as substrate
ASSAY_METRIC: Ki

• N=C(N)c1ccc(CNC(=O)[C@H](CCC2CCNCC2)NC(=O)[C@@H](CCC2CCN(C(=O)C3CC3)CC2)NS(=O)(=O)Cc2ccccc2)cc1 = > 1000 nM

Below: the item to evaluate.
Recorded Ki of N=C(N)c1ccc(CNC(=O)[C@H](CCC2CCNCC2)NC(=O)[C@@H](CCCc2ccccc2)NS(=O)(=O)Cc2ccccc2)cc1 , please. > 130 nM

* * *

- TEST_PROTOCOL: Half life in dog, iv
- Type: ADME, Canis lupus familiaris
- RECORDED_CONDITIONS: in vivo
ASSAY_METRIC: half-life (min)
Report only the number, with the unit min understood.

Which half-life is reported for this compound? N=C(N)c1ccc(CNC(=O)[C@H](Cc2cccc(CN)c2)NC(=O)[C@@H](CCCc2ccccc2)NS(=O)(=O)Cc2cccc(C(=O)O)c2)cc1 20
